System Tested: aldose reductase (Rattus norvegicus, UniProt P07943)
Construct: water soluble extracts of rat lenses; from tissue; host or cells: rat lens (water-soluble extract)
Assay Remarks: Inhibition of aldose reductase enzyme activity (Kador and Sharpless method, water soluble extracts of rat lenses)
Format: biochemical
Condition Set: Table 2; rat lens extract
pIC50: −log10 of the molar value.
# pIC50 per record follows
Assay Metric: pIC50

Nc1cc(F)cc2c1OC(CCl)CC21NC(=O)NC1=O (racemic) : 6.77
NC(=O)C1CC2(NC(=O)NC2=O)c2cc(F)cc([N+](=O)[O-])c2O1 (racemic) : 7.51
O=C1NC(=O)C2(CC(CCl)Oc3c([N+](=O)[O-])cc(F)cc32)N1 (racemic) : 7.12
NC(=O)C1CC2(NC(=O)NC2=O)c2cc(F)cc(N)c2O1 (racemic) : 7.36
NC(=O)[C@H]1CC2(NC(=O)NC2=O)c2cc(F)cc([N+](=O)[O-])c2O1 (stereo partly shown) : 7.85
NC(=O)[C@H]1CC2(NC(=O)NC2=O)c2cc(F)cc(N)c2O1 (stereo partly shown) : 7.60
CC(=O)Nc1cc(F)cc2c1O[C@@H](C(N)=O)CC21NC(=O)NC1=O (stereo partly shown) : 7.74

---

System Tested: aldose reductase (Rattus norvegicus, UniProt P07943)
Construct: water soluble extracts of rat lenses; from tissue; host or cells: rat lens (water-soluble extract)
Assay Remarks: Inhibition of aldose reductase enzyme activity (Kador and Sharpless method, water soluble extracts of rat lenses)
Format: biochemical
Condition Set: Table 1; 10^-7 M; read-out: Inhibition (%)
Assay Metric: inhibition at 0.1 µM (%)

O=C1NC(=O)C2(CC(CCl)Oc3ccc(F)cc32)N1 (centres unmarked) [Compound E] : 66
O=C1NC(=O)C2(CC(CBr)Oc3ccc(F)cc32)N1 (racemic) [G] : 42
O=C1NC(=O)C2(CC(CCl)Oc3ccc(F)cc32)N1 (racemic) [D] : 53
O=C1NC(=O)C2(CC(CBr)Oc3ccc(F)cc32)N1 (centres unmarked) [H] : 59
O=C1NC(=O)C2(CCOc3ccc(F)cc32)N1 (centres unmarked) [Q, reference compound] : 17

---

System Tested: aldose reductase (Rattus norvegicus, UniProt P07943)
Construct: water soluble extracts of rat lenses; from tissue; host or cells: rat lens (water-soluble extract)
Assay Remarks: Inhibition of aldose reductase enzyme activity (Kador and Sharpless method, water soluble extracts of rat lenses)
Assay type: biochemical
Condition Set: Table 2; 10^-7 M; read-out: Inhibition (%)
Assay Metric: inhibition at 0.1 µM (%)

NC(=O)C1CC2(NC(=O)NC2=O)c2cc(F)cc(N)c2O1 (racemic) [M] : 74
NC(=O)[C@H]1CC2(NC(=O)NC2=O)c2cc(F)cc(N)c2O1 (stereo partly drawn) [K] : 70
O=C1NC(=O)C2(CCOc3ccc(F)cc32)N1 (stereo not drawn) [R, reference compound] : 29
Nc1cc(F)cc2c1OC(CCl)CC21NC(=O)NC1=O (racemic) [O] : 38
NC(=O)C1CC2(NC(=O)NC2=O)c2cc(F)cc([N+](=O)[O-])c2O1 (racemic) [L] : 88
O=C1NC(=O)C2(CC(CCl)Oc3c([N+](=O)[O-])cc(F)cc32)N1 (racemic) [N] : 59

---

# log10(IC50) per record follows
System Tested: aldose reductase (Rattus norvegicus)
Construct: water soluble extracts of rat lenses; from tissue; host or cells: rat lens (water-soluble extract)
Assay Remarks: Inhibition of aldose reductase enzyme activity (Kador and Sharpless method, water soluble extracts of rat lenses)
Type: biochemical
Condition Set: Table 1; rat lens extract
Assay Metric: log10(IC50) (log10 of the value in nM)

O=C1NC(=O)C2(CC(CBr)Oc3ccc(F)cc32)N1 (stereo not drawn) [H] : 1.83
O=C1NC(=O)C2(CC(CCl)Oc3ccc(F)cc32)N1 (racemic) [D] : 1.95
O=C1NC(=O)C2(CC(CBr)Oc3ccc(F)cc32)N1 (stereo not drawn) [I] : 3.43
O=C1NC(=O)C2(CC(CBr)Oc3ccc(F)cc32)N1 (racemic) [G] : 2.11
O=C1NC(=O)C2(CC(CCl)Oc3ccc(F)cc32)N1 (stereo not drawn) [F] : 3.46
O=C1NC(=O)C2(CC(CCl)Oc3ccc(F)cc32)N1 (stereo not drawn) [Compound E] : 1.67

Origin of values: patent US5001240A
